# Measured On: T1, GST-WWP1.4
# T1 construct: Coated on polystyrene plates; also called WWP1 WW domain 4; not shown: glutathione S-transferase (GST) fusion partner
# Procedure Summary: TRF (DELFIA) plate assay, GST-WW domain coated at 30 µg/mL, titrated with biotinylated peptide
Where no end group is shown, it is not given here. The star is where a group is joined. Biotin = O=C1N[C@H]2[C@H](CS[C@H]2CCCCC(=O)*)N1; Ahx = NCCCCCC(=O)O
Parameter: binding result

Query: Item IPETPPPGYISEDG (not fully specified (N-terminus); also: biotin with C6 linker, end not given here, also called Smad 2 peptide) [Smad2 PY motif peptide IPETPPPGYISEDG] has what recorded binding result?
Reply: no binding

Query: Same read-out for PADTPPPAYMPPDD (not fully specified (N-terminus); also: biotin with C6 linker, end not given here, also called Smad 5 peptide) [Smad5 PY motif peptide PADTPPPAYMPPDD] ?
Reply: binds

Query: Please do the same for {Biotin-Ahx}-PADTPPPAYLPPED-NH2 (SMILES CC(C)C[C@H](NC(=O)[C@H](Cc1ccc(O)cc1)NC(=O)[C@H](C)NC(=O)[C@@H]1CCCN1C(=O)[C@@H]1CCCN1C(=O)[C@@H]1CCCN1C(=O)[C@@H](NC(=O)[C@H](CC(=O)O)NC(=O)[C@H](C)NC(=O)[C@@H]1CCCN1C(=O)CCCCCNC(=O)CCCC[C@@H]1SC[C@@H]2NC(=O)N[C@@H]21)[C@@H](C)O)C(=O)N1CCC[C@H]1C(=O)N1CCC[C@H]1C(=O)N[C@@H](CCC(=O)O)C(=O)N[C@@H](CC(=O)O)C(N)=O, also called Smad 1 PY peptide; Biotin-Ahx-PADTPPPAYLPPED-CONH2) [Smad1 PY motif peptide PADTPPPAYLPPED] as well.
Reply: no binding

Query: Entry AGLTPPPGYLSEDG (not fully specified (N-terminus); also: biotin with C6 linker, end not given here, also called Smad 3 peptide) [Smad3 PY motif peptide AGLTPPPGYLSEDG] please
Reply: no binding

---
Query: Need binding result of GPESPPPPYSRLSP (not fully specified (N-terminus); also: biotin with C6 linker, end not given here, also called Smad 6 peptide) [Smad6 PY motif peptide GPESPPPPYSRLSP] , thanks.
Reply: binds
